Would you mind telling me the reported IC50 of each entry?
- EXPERIMENTAL_TARGET: T1, Elastase from human neutrophils (human, UniProt P08246 30-247, limits assumed)
- T1 sequence (looked up): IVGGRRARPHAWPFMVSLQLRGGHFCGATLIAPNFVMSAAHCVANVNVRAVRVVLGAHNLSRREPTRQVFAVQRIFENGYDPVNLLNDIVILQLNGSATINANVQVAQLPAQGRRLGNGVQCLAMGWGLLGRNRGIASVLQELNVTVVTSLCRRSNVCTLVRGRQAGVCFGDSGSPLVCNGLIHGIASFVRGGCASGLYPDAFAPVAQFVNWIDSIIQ
- TEST_SUMMARY: cell-based or functional assay
Bridges are numbered along the chain shown (N, C = ends). [ ]: non-standard residue; d: D form.

// query Report IC50 for cyclo(FCTKSDPPICS[dP]L) (disulfide 2-10) [Example 74]
// result > 100000 nmol

// query Report IC50 for FCTKSDPPICS (HELM PEPTIDE1{F.C.T.K.S.D.P.P.I.C.S.[dP].D}$PEPTIDE1,PEPTIDE1,2:R3-10:R3|PEPTIDE1,PEPTIDE1,1:R1-13:R2$$$V2.0; SMILES CC[C@H](C)[C@@H]1NC(=O)[C@@H]2CCCN2C(=O)[C@@H]2CCCN2C(=O)[C@H](CC(=O)O)NC(=O)[C@H](CO)NC(=O)[C@H](CCCCN)NC(=O)[C@H]([C@@H](C)O)NC(=O)[C@@H]2CSSC[C@H](NC1=O)C(=O)N[C@@H](CO)C(=O)N1CCC[C@@H]1C(=O)N[C@@H](CC(=O)O)C(=O)N[C@@H](Cc1ccccc1)C(=O)N2) [Example 47]
// result > 10000 nmol
